target of assay: PSMA Fab (SEQ ID NOs: 19, 20) binding to the PSMA antigen
Sequence (as listed by the source): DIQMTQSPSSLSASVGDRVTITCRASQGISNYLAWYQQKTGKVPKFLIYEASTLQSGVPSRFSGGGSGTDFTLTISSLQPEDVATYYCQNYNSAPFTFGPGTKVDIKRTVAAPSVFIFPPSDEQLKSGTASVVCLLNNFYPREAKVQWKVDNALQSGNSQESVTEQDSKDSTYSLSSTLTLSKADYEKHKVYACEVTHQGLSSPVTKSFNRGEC
Sequence (as listed by the source): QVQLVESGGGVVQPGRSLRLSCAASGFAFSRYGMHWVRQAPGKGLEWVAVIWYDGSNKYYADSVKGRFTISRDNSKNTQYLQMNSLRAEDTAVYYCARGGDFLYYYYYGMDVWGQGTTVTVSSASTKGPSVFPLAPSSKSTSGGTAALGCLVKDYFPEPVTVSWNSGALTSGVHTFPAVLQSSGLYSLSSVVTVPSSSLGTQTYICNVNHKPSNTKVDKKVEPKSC
Sequence (Q04609 whole entry partner): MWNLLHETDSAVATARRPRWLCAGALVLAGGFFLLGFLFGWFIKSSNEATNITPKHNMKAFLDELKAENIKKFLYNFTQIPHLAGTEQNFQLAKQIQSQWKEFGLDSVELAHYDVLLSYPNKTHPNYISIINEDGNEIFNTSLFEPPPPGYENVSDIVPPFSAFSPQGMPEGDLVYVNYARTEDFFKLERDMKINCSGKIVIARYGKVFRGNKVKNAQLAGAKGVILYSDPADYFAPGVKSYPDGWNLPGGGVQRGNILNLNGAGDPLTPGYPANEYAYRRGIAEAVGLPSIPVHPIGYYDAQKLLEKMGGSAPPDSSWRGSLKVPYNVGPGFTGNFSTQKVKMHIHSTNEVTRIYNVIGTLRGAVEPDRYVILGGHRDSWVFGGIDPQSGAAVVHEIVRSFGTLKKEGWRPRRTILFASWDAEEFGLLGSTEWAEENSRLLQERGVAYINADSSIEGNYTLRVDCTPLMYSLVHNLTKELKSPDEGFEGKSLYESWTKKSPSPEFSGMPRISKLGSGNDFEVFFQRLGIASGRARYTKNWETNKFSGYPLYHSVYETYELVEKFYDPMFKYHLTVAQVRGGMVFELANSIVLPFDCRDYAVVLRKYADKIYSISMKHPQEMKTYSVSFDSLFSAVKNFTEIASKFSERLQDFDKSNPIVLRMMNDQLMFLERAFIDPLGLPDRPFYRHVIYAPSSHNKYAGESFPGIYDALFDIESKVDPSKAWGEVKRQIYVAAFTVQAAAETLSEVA
procedure text: Inhibition of PSMA Fab binding to PSMA by peptides, competition ELISA (incl. alanine scanning)
conditions: Table 40; competition binding ELISA, alanine scanning sequences of Peptide-179
pIC50: −log10 of the molar value.
recorded metric: pIC50

Here is how some sequences turned out for pIC50.
Query block: What value of pIC50 has been reported for the following sequence? LMKWCTPRWACAAE [Peptide-249]
Result block: < 4.00

Query block: What value of pIC50 has been reported for the following sequence? LMKWCTPRWMC [Peptide-250]
Result block: 5.18

Query block: What value of pIC50 has been reported for the following sequence? LMKWCTARWMCAAE [Peptide-246]
Result block: < 4.00

// next entry
Query block: What value of pIC50 has been reported for the following sequence? LMKWCTPRAMCAAE [Peptide-248]
Result block: < 4.00

====

target of assay: anti-CD28 Fab (SEQ ID NOs: 696, 697)
Sequence (as listed by the source): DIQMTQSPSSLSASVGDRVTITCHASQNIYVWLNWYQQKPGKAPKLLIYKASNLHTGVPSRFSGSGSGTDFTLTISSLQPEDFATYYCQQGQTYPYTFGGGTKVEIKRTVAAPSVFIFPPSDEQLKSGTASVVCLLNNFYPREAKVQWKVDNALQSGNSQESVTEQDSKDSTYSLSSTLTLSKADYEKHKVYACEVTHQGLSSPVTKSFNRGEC
Sequence (as listed by the source): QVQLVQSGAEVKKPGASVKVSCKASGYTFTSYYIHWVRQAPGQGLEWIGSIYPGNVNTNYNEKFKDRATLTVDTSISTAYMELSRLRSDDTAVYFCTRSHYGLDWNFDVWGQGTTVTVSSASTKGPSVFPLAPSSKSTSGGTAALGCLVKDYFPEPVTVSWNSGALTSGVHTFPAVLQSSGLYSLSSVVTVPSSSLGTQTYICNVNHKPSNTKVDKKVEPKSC
procedure text: anti-CD28 Fab binding to peptides, ELISA
conditions: Table 24; anti-CD28 Fab
pEC50: −log10 of the molar value.
recorded metric: pEC50

Query block: What value of pEC50 has been reported for the following sequence? ACDTYFAGMINECF [Peptide-79]
Result block: 7.01

Query block: What value of pEC50 has been reported for the following sequence? ECHWSMWAVGHACF [Peptide-83]
Result block: < 6.00

Query block: What value of pEC50 has been reported for the following sequence? YCAGHAWQYINKCL [Peptide-87]
Result block: 7.31

Query block: What value of pEC50 has been reported for the following sequence? YCAGMSTIQLWLKC [Peptide-94]
Result block: < 6.00

Query block: What value of pEC50 has been reported for the following sequence? SCAAGASYAWPYCL [Peptide-92]
Result block: 7.27

New cases:
Query block: What value of pEC50 has been reported for the following sequence? PDCQTILFKPWCVR [Peptide-78]
Result block: < 6.00

Query block: What value of pEC50 has been reported for the following sequence? FMCLPQNPHPLCFK [Peptide-77]
Result block: < 6.00

Query block: What value of pEC50 has been reported for the following sequence? WCWDYKLWVPTQCP [Peptide-81]
Result block: < 6.00

Query block: What value of pEC50 has been reported for the following sequence? GCQYPWAFDAMSCP [Peptide-80]
Result block: < 6.00

====

This listing pairs sequences with measured kdis.
System: anti-CD28 Fab (SEQ ID NOs: 696, 697)
procedure text: Kinetic binding of peptides to anti-CD28 Fab, BLI
conditions: Table 30, BLI
I only need the number, in s⁻¹, no unit after it.

Here is how some sequences turned out for kdis.
Query block: What value of kdis has been reported for the following sequence? YCEGHLPEYIQKCL [Peptide-134]
Result block: 0.0115

Query block: What value of kdis has been reported for the following sequence? YCAGHAWQYINKCL [Peptide-87]
Result block: 0.0202

Query block: What value of kdis has been reported for the following sequence? YCEGHLPEYREKCL [Peptide-126]
Result block: 0.0191

Query block: What value of kdis has been reported for the following sequence? YCEGHAPEYIAKCL [Peptide-121]
Result block: 0.028

Query block: What value of kdis has been reported for the following sequence? YCEGHLPEYIEKCL [Peptide-120]
Result block: 0.0239

New cases:
Query block: What value of kdis has been reported for the following sequence? YCEGHLPEYLAKCL [Peptide-127]
Result block: 0.0118

Query block: What value of kdis has been reported for the following sequence? YCEGHLPEYRNKCL [Peptide-132]
Result block: 0.0138

====

This listing pairs substances with measured Phage binding ELISA Background signal.
Tested on: PSMA Fab
procedure text: Phage binding ELISA, PSMA Fab, with or without PSMA antigen (peptide-179 and peptide-180 libraries)
conditions: peptide-180 library clonal phage; background (no Fab)
Where no end group is shown, it is not given here.

Here is how some substances turned out for Phage binding ELISA Background signal.
Query block: What value of Phage binding ELISA Background signal has been reported for the following substance? Phage-2868 (EPIRCVPQWMCVGF)
Result block: 0.0882

Query block: What value of Phage binding ELISA Background signal has been reported for the following substance? Phage-2802 (TPKWCTPAWMCVVS)
Result block: 0.0829

New cases:
Query block: What value of Phage binding ELISA Background signal has been reported for the following substance? Phage-2840 (EPQWCIPKWMCDHM; not fully specified; cysteine pairing not given here)
Result block: 0.0612

Query block: What value of Phage binding ELISA Background signal has been reported for the following substance? Phage-2800 (DYKWCTPPWMCDSR)
Result block: 0.0795

Query block: What value of Phage binding ELISA Background signal has been reported for the following substance? Phage-2787 (LWKSCTPEWMCAEW)
Result block: 0.0888

Query block: What value of Phage binding ELISA Background signal has been reported for the following substance? Phage-2805 (MMHWCTPPWMCEFS)
Result block: 0.0597

Query block: What value of Phage binding ELISA Background signal has been reported for the following substance? Phage-2788 (SVKWCTPSWMCTEW)
Result block: 0.0817

Query block: What value of Phage binding ELISA Background signal has been reported for the following substance? Phage-2836 (DWKLCKPTWMCESL; not fully specified; cysteine pairing not given here)
Result block: 0.0582

Query block: What value of Phage binding ELISA Background signal has been reported for the following substance? Phage-2789 (VGKWCTPEWMCSGF)
Result block: 0.058

Query block: What value of Phage binding ELISA Background signal has been reported for the following substance? Phage-2807 (WENWCIPQWMCGTA)
Result block: 0.1629

Query block: What value of Phage binding ELISA Background signal has been reported for the following substance? Phage-2847 (WMPRCVPEWMCAGF; not fully specified; cysteine pairing not given here)
Result block: 0.1667

====

This listing pairs sequences with measured pEC50.
target of assay: PSMA Fab (SEQ ID NOs: 19, 20)
procedure text: PSMA Fab binding to peptides, ELISA
conditions: Table 38; PSMA Fab binding to biotinylated peptide, ELISA
pEC50: −log10 of the molar value.

Here is how some sequences turned out for pEC50.
Query block: What value of pEC50 has been reported for the following sequence? ILCGLYEALVSECG [Peptide-187]
Result block: < 5.52

Query block: What value of pEC50 has been reported for the following sequence? HCLGPALGPVDGDC [Peptide-189]
Result block: < 5.52

Query block: What value of pEC50 has been reported for the following sequence? YECHQGLFHRWCVN [Peptide-185]
Result block: < 5.52

New cases:
Query block: What value of pEC50 has been reported for the following sequence? IECAYMTDQRFWCW [Peptide-188]
Result block: < 5.52

Query block: What value of pEC50 has been reported for the following sequence? PELRCVPFWMCSFN [Peptide-181]
Result block: 8.52

Query block: What value of pEC50 has been reported for the following sequence? IAVLCQPNWMCAGF [Peptide-180]
Result block: 7.48

Query block: What value of pEC50 has been reported for the following sequence? IRCVGEGHDLVCIF [Peptide-184]
Result block: < 5.52

====

target of assay: anti-CD28 scFv (disulfide) (SEQ ID NO: 10) binding to CD28 antigen
Sequence (as listed by the source): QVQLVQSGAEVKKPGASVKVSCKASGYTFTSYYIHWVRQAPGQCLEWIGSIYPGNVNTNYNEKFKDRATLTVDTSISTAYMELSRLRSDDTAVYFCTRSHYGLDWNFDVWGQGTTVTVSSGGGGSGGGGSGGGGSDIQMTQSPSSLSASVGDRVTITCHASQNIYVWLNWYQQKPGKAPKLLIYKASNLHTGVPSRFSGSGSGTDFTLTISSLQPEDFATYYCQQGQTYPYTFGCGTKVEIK
Sequence (P10747 19-220 partner): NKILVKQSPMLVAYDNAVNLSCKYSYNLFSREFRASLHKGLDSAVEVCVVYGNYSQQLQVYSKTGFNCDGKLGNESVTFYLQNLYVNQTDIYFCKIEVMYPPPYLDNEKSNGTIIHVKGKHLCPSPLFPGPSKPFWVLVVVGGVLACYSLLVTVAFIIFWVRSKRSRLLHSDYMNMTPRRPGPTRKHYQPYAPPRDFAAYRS
procedure text: Inhibition of anti-CD28 scFv (disulfide) binding to CD28 by peptides, competition ELISA
conditions: Table 29; anti-CD28 scFv (disulfide) fixed at 0.3 nM, 0-100 μM peptides
pIC50: −log10 of the molar value.
This listing pairs sequences with measured pIC50.

Query block: What value of pIC50 has been reported for the following sequence? SCAAGASYAWPYCA [Peptide-106]
Result block: < 4.00

New cases:
Query block: What value of pIC50 has been reported for the following sequence? YCAGHAWQYANKCL [Peptide-113]
Result block: < 4.00

====

Test system: PSMA Fab
procedure text: Phage binding ELISA, PSMA Fab, with or without PSMA antigen (peptide-179 and peptide-180 libraries)
conditions: peptide-180 library clonal phage; background (no Fab)
Where no end group is shown, it is not given here.
This listing pairs substances with measured Phage binding ELISA Background signal.
Respond using a number only.

Here is how some substances turned out for Phage binding ELISA Background signal.
Query block: What value of Phage binding ELISA Background signal has been reported for the following substance? Phage-2865 (MSPLCKPVWMCAGF)
Result block: 0.0586

Query block: What value of Phage binding ELISA Background signal has been reported for the following substance? Phage-2858 (TQAMCKPAWMCQGF; not fully specified; cysteine pairing not given here)
Result block: 0.0585

Query block: What value of Phage binding ELISA Background signal has been reported for the following substance? Phage-2835 (VAKLCTPAWMCSAM; not fully specified; cysteine pairing not given here)
Result block: 0.0643

New cases:
Query block: What value of Phage binding ELISA Background signal has been reported for the following substance? Phage-2852 (VMPLCKPAWMCGGF; not fully specified; cysteine pairing not given here)
Result block: 0.0869

Query block: What value of Phage binding ELISA Background signal has been reported for the following substance? Phage-2813 (FSKLCTPPWMCSVS)
Result block: 0.0586

Query block: What value of Phage binding ELISA Background signal has been reported for the following substance? Phage-2792 (TQHWCTPIWMCEGL)
Result block: 0.0865

Query block: What value of Phage binding ELISA Background signal has been reported for the following substance? Phage-2797 (ERIWCTPKWMCETF)
Result block: 0.0696

Query block: What value of Phage binding ELISA Background signal has been reported for the following substance? Phage-2857 (LERACVPSWMCTGF; not fully specified; cysteine pairing not given here)
Result block: 0.0649

Query block: What value of Phage binding ELISA Background signal has been reported for the following substance? Phage-2817 (EAKWCTPPWMCSLV)
Result block: 0.0615

Query block: What value of Phage binding ELISA Background signal has been reported for the following substance? Phage-2863 (FNVMCRPAWMCDFL; not fully specified; cysteine pairing not given here)
Result block: 0.1545

Query block: What value of Phage binding ELISA Background signal has been reported for the following substance? Phage-2808 (MEKWCTPRWMCVGM)
Result block: 0.0767

Query block: What value of Phage binding ELISA Background signal has been reported for the following substance? Phage-2860 (EWILCKPAWMCDGL; not fully specified; cysteine pairing not given here)
Result block: 0.051

Source of measurements: patent US20260242478A1
